Measured values drawn from patent US8293769B2 for this set.

molecular target: cytoplasmic domain of the human CSF-1R (Homo sapiens, UniProt P07333); construct: Recombinant protein corresponding to the cytoplasmic domain of the human CSF-1R; purchased Invitrogen Corporation, Carlsbad, Calif; PV3249; test: In vitro kinase assay for CSF-1R (AlphaScreen); format: biochemical; details: tested at about 1 μM; read-out: CSF1RK 1 percent inhibition
Give measured inhibition at 1 µM for each item. Keep answers brief.
Give bare numbers, in %.

Use these answered entries as a reference point.
{"smiles.repr": "CNC(=O)c1cc(Oc2ccc3nc(NCC4CCCCC4)sc3c2)nc(OC)n1", "system.tested": "cytoplasmic domain of the human CSF-1R (Homo sapiens, UniProt P07333)", "reported.measurement": 96}
{"smiles.repr": "Nc1ccc(-c2cc(Oc3ccc4nc(N[C@@H]5CCCC[C@H]5O)sc4c3)cnc2Cl)cn1", "system.tested": "cytoplasmic domain of the human CSF-1R (Homo sapiens, UniProt P07333)", "reported.measurement": 86}

Batch of 5 molecules: report inhibition at 1 µM for each.
1. Cn1nccc1-c1cncc(Oc2ccc3nc(N[C@@H]4CCCC[C@H]4O)sc3c2)n1
2. c1nc(Oc2ccc3nc(NCC4CCCCC4)sc3c2)c2ccsc2n1
3. O[C@@H]1CCCC[C@H]1Nc1nc2ccc(Oc3cncc(-c4cncs4)c3)cc2s1
4. O[C@@H]1CCCC[C@H]1Nc1nc2ccc(Oc3cncc(-c4ccc(N5CCOCC5)nc4)c3)cc2s1
5. Cn1ncc2c(Oc3ccc4nc(NCC5CCCCC5)sc4c3)ncnc21

95
100
100
100
99

Would you kindly share the measured inhibition at 1 µM for `Nc1ccc(-c2cc(Oc3ccc4nc(N[C@@H]5CCCC[C@H]5O)sc4c3)cnc2-c2ccc(N)nc2)cn1` ? 93

* * *

Target: cytoplasmic domain of the human CSF-1R (Homo sapiens)
Construct: Recombinant protein corresponding to the cytoplasmic domain of the human CSF-1R; purchased Invitrogen Corporation, Carlsbad, Calif; PV3249
Sequence (P07333 539-972 limits assumed): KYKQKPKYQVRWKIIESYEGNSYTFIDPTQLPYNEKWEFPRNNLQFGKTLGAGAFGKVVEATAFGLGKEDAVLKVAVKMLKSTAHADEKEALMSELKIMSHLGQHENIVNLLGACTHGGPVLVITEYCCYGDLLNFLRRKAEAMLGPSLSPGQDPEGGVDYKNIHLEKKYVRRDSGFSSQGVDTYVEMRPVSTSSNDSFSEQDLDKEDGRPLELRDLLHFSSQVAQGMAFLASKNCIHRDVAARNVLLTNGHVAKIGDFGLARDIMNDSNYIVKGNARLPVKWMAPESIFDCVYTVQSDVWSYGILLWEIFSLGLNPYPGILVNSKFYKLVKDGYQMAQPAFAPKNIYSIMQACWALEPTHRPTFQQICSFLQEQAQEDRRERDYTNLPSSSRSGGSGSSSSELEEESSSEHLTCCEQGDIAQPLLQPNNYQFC
Test: In vitro kinase assay for CSF-1R (AlphaScreen)
Format: biochemical
Conditions: tested at about 1 μM; read-out: CSF1RK 1 percent inhibition
Provide the reported inhibition at 1 µM of each item.
Numbers only, in %.

Worked set:
{"compound": "Nc1ccc(Oc2ccc3nc(NCC4CCCCC4)sc3c2)nn1 [Compound 89]", "measurement.kind": "inhibition at 1 µM", "reported.measurement": 75}
{"compound": "O[C@@H]1CCCC[C@H]1Nc1nc2ccc(Oc3cncc(-c4cccnc4)c3)cc2s1 [Compound 57]", "measurement.kind": "inhibition at 1 µM", "reported.measurement": 100}
{"compound": "O[C@@H]1CCCC[C@H]1Nc1nc2ccc(Oc3cncc(-c4ccc(F)cc4)c3)cc2s1 [Compound 64]", "measurement.kind": "inhibition at 1 µM", "reported.measurement": 100}
{"compound": "Clc1ccncc1Oc1ccc2nc(NCC3CCCCC3)sc2c1 [Compound 1]", "measurement.kind": "inhibition at 1 µM", "reported.measurement": 100}
{"compound": "O[C@@H]1CCCC[C@H]1Nc1nc2ccc(Oc3cncc(-n4cncn4)n3)cc2s1 [Compound 42]", "measurement.kind": "inhibition at 1 µM", "reported.measurement": 51}
{"compound": "Cn1cc(-c2cc(Oc3ccc4nc(N[C@@H]5CCCC[C@H]5O)sc4c3)cnc2-c2cnn(C)c2)cn1 [Compound 106]", "measurement.kind": "inhibition at 1 µM", "reported.measurement": 81}

For every item in the list below, what is its measured inhibition at 1 µM?
1. N#Cc1ccc(Oc2ccc3nc(N[C@@H]4CCCC[C@H]4O)sc3c2)cn1 [Compound 88]
2. Cn1cc(-c2cc(Oc3ccc4nc(N[C@@H]5CCCC[C@H]5O)sc4c3)ncn2)cn1 [Compound 22]
3. Cn1cc(-c2cncc(Oc3ccc4nc(N[C@@H]5CCCC[C@H]5O)sc4c3)n2)cn1 [Compound 93]
4. CN1CCN(c2ccc(-c3cc(Oc4ccc5nc(N[C@@H]6CCCC[C@H]6O)sc5c4)cnc3-c3ccc(N4CCN(C)CC4)nc3)cn2)CC1 [Compound 107]
5. c1nc(Oc2ccc3nc(NCC4CCCCC4)sc3c2)c2sccc2n1 [Compound 38]
6. COc1cc2ncnc(Oc3ccc4nc(NCC5CCCCC5)sc4c3)c2cc1OC [Compound 17]
7. O[C@@H]1CCCC[C@H]1Nc1nc2ccc(Oc3cc(-n4cncn4)ncn3)cc2s1 [Compound 43]
8. C[C@H](Nc1nc2ccc(Oc3ccc(NO)nc3)cc2s1)C1CCCCC1 [Compound 101]

1. 32
2. 100
3. 100
4. 100
5. 100
6. 100
7. 57
8. 100

Items follow; give inhibition at 1 µM for each.
1. C[C@H](Nc1nc2ccc(Oc3cc(Cl)ncn3)cc2s1)C1CCCCC1 [Compound 35]
2. Cn1cncc1-c1cncc(Oc2ccc3nc(N[C@@H]4CCCC[C@H]4O)sc3c2)c1 [Compound 68]
3. COc1cc2ncnc(Oc3ccc4nc(N[C@@H]5CCCC[C@H]5O)sc4c3)c2cc1OC [Compound 19]
4. C[C@H](Nc1nc2ccc(Oc3ccnc(-c4ccc(N)nc4)n3)cc2s1)C1CCCCC1 [Compound 33]

1: 79; 2: 100; 3: 100; 4: 100

Below is a list of compounds. For each, state its recorded inhibition at 1 µM.
1. Nc1ccc(-c2nccc(Oc3ccc4nc(N[C@@H]5CCCC[C@H]5O)sc4c3)n2)cn1 [Compound 29]
2. Cn1cc(-c2nccc(Oc3ccc4nc(NCC5CCCCC5)sc4c3)n2)cn1 [Compound 21]
3. Nc1cc(Oc2ccc3nc(NCC4CCCCC4)sc3c2)nc(N)n1 [Compound 3]
4. CC(=O)NCCNc1cc(Oc2ccc3nc(NCC4CCCCC4)sc3c2)nc(N)n1 [Compound 14]
5. O[C@@H]1CCCC[C@H]1Nc1nc2ccc(Oc3cncc(-c4ccccn4)c3)cc2s1 [Compound 67]
6. O[C@@H]1CCCC[C@H]1Nc1nc2ccc(Oc3cnc(Cl)c(Br)c3)cc2s1 [Compound 99]
7. O[C@@H]1CCCC[C@H]1Nc1nc2ccc(Oc3cncc(-c4ccncc4)c3)cc2s1 [Compound 60]
8. C[C@H](Nc1nc2ccc(Oc3ccnc(-c4ccncc4)n3)cc2s1)C1CCCCC1 [Compound 32]

[100, 100, 19, 26, 100, 83, 100, 100]
